Field: half-life at 20 μM. Provide a value for each of the compounds that follow.
test: Stability in cynomolgus monkey fecal homogenate; type: in vitro ADME; settings: 20% fecal homogenate (supernatant), pH 6.8, 20% cynomolgus monkey fecal homogenate, anaerobic, 37° C., read-out: t½: Monkey Feces anaerobic (converted)

## Task Using the record for CC(=O)NCCCC[C@@H]1NC(=O)[C@H](Cc2c[nH]c3c(C)cccc23)NC(=O)[C@H]([C@@H](C)O)NC(=O)[C@H](CC(N)=O)NC(=O)[C@@H](NC(C)=O)C(C)(C)SSC(C)(C)[C@@H](C(=O)N[C@@H](Cc2ccc(OCCN)cc2)C(=O)N[C@@H](Cc2ccc3ccccc3c2)C(=O)N[C@@](C)(CCCCN)C(=O)N[C@@H](CCCCNC(=O)[C@H](C)N)C(=O)N[C@@H](CC(N)=O)C(=O)N[C@H](CC(C)C)C(N)=O)NC1=O , state its measured half-life at 20 μM.
## Result > 24 h

## Task Using the record for CC(=O)NCCCC[C@H](NC(=O)[C@](C)(CCCCN)NC(=O)[C@H](Cc1ccc2ccccc2c1)NC(=O)[C@H](Cc1ccc(OCCN)cc1)NC(=O)[C@H]1NC(=O)[C@H](CCC(N)=O)NC(=O)[C@H](Cc2c[nH]c3c(C)cccc23)NC(=O)[C@H]([C@@H](C)O)NC(=O)[C@H](CC(N)=O)NC(=O)[C@@H](NC(C)=O)C(C)(C)SSC1(C)C)C(=O)N[C@@H](CC(N)=O)C(=O)NCCC(N)=O , state its measured half-life at 20 μM.
## Result 10 h

## Task Using the record for CCCCC(=O)NCCCC[C@H](NC(=O)[C@](C)(CCCCN)NC(=O)[C@H](Cc1ccc2ccccc2c1)NC(=O)[C@H](Cc1ccc(OCCN)cc1)NC(=O)[C@H]1NC(=O)[C@H](CCCCNC(C)=O)NC(=O)[C@H](Cc2c[nH]c3c(C)cccc23)NC(=O)[C@H]([C@@H](C)O)NC(=O)[C@H](CC(N)=O)NC(=O)[C@@H](NC(C)=O)C(C)(C)SSC1(C)C)C(=O)N[C@@H](CC(N)=O)C(=O)N[C@H](CC(C)C)C(N)=O , state its measured half-life at 20 μM.
## Result > 24 h

Cited source: patent US11041000B2
